# test system: TNIK (Homo sapiens, UniProt Q9UKE5)
# Sequence (Q9UKE5 whole entry): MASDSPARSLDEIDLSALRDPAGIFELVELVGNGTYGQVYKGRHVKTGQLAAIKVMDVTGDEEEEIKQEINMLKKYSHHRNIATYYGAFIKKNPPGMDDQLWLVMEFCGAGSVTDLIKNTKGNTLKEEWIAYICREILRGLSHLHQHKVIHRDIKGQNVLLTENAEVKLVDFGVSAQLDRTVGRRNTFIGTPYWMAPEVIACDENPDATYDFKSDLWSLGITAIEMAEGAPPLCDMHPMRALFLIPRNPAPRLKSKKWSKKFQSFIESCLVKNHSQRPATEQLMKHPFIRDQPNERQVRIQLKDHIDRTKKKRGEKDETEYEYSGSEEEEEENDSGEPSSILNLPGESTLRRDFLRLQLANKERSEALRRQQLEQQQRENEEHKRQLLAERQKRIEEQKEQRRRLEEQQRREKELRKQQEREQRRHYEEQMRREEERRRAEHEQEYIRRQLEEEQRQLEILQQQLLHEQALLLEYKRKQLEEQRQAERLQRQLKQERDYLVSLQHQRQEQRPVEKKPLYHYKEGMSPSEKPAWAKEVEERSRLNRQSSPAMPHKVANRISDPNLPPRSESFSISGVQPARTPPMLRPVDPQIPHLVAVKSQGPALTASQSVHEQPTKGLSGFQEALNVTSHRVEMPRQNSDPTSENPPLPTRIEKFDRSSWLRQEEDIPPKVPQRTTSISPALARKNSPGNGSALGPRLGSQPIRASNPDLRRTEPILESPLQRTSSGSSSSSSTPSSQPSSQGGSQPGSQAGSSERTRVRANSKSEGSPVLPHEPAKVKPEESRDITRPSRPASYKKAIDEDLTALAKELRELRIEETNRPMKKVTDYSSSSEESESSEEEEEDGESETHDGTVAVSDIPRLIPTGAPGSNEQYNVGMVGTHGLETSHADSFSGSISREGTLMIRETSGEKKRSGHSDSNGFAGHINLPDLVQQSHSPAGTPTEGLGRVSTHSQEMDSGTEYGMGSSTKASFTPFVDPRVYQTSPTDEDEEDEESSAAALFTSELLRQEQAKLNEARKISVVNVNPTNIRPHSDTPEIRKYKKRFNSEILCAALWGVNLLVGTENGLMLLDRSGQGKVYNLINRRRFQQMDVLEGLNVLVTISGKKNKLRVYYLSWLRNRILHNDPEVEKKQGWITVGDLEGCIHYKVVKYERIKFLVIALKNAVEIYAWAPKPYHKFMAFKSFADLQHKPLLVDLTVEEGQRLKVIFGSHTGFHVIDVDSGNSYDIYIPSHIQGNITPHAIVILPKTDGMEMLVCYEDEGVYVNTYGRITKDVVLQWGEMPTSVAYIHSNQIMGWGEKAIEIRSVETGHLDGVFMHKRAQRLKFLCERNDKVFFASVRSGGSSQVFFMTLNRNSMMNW
# protocol text: biochemical
What pIC50 was measured for each of the following?
Answers are plain numbers, as −log10 of the molar value.

compound	result
CN(C)CC(O)COc1ccc(Nc2ncc([N+](=O)[O-])c(Nc3ccccc3O)n2)cc1.O=C(O)C(F)(F)F (centres unmarked)	6.09

# return recorded pIC50 for input `Cl.NCC1(c2nc(-c3ccc(Cl)c(O)c3)c(-c3ccncc3)[nH]2)CCCCC1`
6.54

---

# test system: ABL1
# Sequence (P00519 whole entry): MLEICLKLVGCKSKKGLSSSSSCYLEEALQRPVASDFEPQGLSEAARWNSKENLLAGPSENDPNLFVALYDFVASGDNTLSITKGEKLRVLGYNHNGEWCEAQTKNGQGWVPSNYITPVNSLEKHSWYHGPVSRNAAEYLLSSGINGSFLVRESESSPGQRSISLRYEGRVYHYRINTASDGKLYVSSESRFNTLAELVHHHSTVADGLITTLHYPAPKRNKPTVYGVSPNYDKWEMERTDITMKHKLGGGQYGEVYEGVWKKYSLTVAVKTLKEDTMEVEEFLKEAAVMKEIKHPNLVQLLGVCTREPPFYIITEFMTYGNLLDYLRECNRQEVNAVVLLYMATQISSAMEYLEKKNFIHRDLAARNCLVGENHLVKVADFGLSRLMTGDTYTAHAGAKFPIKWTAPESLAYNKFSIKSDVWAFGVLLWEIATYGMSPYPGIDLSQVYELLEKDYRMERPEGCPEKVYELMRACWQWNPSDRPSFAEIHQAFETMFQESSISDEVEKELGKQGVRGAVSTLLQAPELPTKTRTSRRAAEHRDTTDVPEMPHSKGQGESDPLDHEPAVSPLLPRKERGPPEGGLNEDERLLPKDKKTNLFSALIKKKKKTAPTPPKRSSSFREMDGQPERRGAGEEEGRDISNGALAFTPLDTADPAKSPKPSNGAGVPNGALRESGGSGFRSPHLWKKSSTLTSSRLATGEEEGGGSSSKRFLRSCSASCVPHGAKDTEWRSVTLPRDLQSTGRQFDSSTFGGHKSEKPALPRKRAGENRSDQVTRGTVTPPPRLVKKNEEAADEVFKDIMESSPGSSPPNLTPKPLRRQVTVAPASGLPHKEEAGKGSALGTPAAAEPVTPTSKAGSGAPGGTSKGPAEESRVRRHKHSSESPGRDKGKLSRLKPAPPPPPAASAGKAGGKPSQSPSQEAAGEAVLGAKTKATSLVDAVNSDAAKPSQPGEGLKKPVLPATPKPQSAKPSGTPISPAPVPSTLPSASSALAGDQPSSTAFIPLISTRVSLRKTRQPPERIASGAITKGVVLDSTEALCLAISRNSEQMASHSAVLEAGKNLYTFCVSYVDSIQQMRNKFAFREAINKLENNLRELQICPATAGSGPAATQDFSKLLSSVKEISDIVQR
# protocol text: biochemical
# conditions used: human; read-out: KDapp
measure: Kd (µM)
Numbers only, in µM.

Return Kd (reported value) for this compound: `CN1CCN(c2ccc(Nc3ncc(C#N)c(Nc4ccccc4C(N)=O)n3)cc2)CC1.Cl`
0.0586

---

# test system: BRAF (Homo sapiens)
# Sequence (P15056 whole entry): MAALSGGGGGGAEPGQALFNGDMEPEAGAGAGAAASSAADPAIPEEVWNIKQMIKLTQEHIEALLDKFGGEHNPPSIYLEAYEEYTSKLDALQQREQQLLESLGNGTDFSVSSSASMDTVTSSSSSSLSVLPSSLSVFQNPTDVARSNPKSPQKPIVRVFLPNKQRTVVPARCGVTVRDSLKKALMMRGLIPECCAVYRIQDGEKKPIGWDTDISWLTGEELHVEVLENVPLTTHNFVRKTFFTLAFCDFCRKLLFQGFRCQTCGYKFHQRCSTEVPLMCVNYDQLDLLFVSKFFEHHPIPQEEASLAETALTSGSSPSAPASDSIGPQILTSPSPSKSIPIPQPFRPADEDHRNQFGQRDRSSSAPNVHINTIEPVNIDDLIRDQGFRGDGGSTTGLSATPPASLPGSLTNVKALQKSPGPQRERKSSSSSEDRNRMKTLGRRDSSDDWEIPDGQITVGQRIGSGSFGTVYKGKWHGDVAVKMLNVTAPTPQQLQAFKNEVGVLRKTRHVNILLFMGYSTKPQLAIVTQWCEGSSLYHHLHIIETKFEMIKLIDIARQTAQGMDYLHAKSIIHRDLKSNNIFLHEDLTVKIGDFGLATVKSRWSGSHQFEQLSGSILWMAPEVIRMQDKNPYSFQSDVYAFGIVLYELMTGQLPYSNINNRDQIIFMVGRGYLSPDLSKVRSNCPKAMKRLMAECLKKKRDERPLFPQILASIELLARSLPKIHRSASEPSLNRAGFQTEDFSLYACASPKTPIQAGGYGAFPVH
# protocol text: biochemical
# conditions used: read-out: KDapp
measure: Kd
Numeric answer plus unit only.

For the compound `CN1CCN(c2ccc(Nc3ncc(C#N)c(Nc4ccccc4C(N)=O)n3)cc2)CC1.Cl` , give its measured Kd value.
1570 nM

---

# test system: CSNK1E (Homo sapiens, UniProt P49674)
# Sequence (P49674 whole entry): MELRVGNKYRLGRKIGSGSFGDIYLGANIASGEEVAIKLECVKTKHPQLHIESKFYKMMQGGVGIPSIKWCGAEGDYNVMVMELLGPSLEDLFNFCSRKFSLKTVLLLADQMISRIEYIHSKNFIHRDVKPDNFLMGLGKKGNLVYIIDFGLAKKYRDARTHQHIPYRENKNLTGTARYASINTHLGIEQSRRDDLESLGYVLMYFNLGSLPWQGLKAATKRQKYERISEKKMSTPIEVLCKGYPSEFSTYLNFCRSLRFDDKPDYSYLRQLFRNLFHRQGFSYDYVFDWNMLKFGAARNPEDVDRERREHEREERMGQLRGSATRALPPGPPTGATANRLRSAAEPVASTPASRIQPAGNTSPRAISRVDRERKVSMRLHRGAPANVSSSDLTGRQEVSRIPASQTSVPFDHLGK
measure: pIC50
Give bare numbers, as −log10 of the molar value.

Tell me pIC50 reported for `Cl.NCC1(c2nc(-c3ccc(Cl)c(O)c3)c(-c3ccncc3)[nH]2)CCCCC1`
6.48

---

Target chain: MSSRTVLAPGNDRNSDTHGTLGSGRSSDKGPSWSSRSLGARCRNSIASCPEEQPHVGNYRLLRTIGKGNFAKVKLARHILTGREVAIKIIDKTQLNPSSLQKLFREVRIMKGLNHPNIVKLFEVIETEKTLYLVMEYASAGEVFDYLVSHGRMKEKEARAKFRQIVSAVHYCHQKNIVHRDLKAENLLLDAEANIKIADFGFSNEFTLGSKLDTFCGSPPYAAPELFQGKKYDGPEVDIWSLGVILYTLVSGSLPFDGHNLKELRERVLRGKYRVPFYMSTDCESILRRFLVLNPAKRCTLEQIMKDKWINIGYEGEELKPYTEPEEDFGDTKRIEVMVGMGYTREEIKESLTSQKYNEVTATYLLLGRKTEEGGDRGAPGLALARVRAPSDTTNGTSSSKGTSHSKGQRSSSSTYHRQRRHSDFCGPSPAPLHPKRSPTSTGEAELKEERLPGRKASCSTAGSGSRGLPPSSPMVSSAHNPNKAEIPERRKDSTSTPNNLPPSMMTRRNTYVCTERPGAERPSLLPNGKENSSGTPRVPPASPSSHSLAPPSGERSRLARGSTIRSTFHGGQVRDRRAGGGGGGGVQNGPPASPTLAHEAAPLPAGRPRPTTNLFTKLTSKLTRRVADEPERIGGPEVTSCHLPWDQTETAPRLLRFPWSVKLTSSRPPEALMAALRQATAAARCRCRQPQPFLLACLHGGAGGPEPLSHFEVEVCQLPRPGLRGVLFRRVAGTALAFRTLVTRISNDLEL
measure: IC50

Complete the entry with IC50 for Cl.NCC1(c2nc(-c3ccc(Cl)c(O)c3)c(-c3ccncc3)[nH]2)CCCCC1 [TCMDC-141154]
> 20 µM

---

# test system: NEK1 (Homo sapiens, UniProt Q96PY6)
# Sequence (Q96PY6 whole entry): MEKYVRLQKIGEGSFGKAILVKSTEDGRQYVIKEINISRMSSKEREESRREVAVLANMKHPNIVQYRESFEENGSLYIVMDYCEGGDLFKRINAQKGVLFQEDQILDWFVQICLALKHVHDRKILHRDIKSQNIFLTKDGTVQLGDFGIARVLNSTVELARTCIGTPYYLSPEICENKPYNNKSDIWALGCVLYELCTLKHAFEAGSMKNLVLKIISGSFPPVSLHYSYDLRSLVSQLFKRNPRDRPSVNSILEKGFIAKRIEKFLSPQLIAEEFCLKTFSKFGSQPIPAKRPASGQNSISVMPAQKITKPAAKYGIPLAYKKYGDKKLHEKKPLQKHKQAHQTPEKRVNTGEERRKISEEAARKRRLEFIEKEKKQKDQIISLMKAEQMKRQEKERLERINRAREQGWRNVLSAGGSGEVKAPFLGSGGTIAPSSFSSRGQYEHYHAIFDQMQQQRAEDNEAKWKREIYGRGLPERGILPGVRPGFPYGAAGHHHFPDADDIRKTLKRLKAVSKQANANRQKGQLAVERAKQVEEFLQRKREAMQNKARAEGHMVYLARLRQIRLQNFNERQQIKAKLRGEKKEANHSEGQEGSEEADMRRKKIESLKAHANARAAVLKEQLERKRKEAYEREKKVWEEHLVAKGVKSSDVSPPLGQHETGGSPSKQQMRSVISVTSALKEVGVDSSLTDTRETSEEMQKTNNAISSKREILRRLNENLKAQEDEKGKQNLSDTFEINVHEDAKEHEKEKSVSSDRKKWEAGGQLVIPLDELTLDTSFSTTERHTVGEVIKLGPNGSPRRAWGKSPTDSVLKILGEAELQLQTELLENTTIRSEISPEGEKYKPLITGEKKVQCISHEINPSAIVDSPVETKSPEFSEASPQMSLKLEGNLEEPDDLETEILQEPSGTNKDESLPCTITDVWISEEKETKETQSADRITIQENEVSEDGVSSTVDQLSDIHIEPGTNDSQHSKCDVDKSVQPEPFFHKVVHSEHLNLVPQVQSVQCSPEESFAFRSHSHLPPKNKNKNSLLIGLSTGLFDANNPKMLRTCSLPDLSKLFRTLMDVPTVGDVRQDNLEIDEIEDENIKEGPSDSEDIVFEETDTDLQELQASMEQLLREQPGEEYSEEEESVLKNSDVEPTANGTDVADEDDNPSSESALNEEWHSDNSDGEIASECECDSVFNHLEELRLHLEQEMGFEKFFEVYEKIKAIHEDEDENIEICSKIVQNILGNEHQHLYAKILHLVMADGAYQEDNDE
# protocol text: biochemical
# conditions used: read-out: KDapp
measure: pKd
Numbers only, as −log10 of the molar value.

Please give measured pKd of the following entry: CN(C)CC(O)COc1ccc(Nc2ncc([N+](=O)[O-])c(Nc3ccccc3O)n2)cc1.O=C(O)C(F)(F)F (stereo not shown) [TCMDC-141399]
5.34
